# tested.system: β-galactosidase (A. oryzae) (Aspergillus oryzae)
# Construct: gene lacA
# Sequence (Q2UCU3 19-1005): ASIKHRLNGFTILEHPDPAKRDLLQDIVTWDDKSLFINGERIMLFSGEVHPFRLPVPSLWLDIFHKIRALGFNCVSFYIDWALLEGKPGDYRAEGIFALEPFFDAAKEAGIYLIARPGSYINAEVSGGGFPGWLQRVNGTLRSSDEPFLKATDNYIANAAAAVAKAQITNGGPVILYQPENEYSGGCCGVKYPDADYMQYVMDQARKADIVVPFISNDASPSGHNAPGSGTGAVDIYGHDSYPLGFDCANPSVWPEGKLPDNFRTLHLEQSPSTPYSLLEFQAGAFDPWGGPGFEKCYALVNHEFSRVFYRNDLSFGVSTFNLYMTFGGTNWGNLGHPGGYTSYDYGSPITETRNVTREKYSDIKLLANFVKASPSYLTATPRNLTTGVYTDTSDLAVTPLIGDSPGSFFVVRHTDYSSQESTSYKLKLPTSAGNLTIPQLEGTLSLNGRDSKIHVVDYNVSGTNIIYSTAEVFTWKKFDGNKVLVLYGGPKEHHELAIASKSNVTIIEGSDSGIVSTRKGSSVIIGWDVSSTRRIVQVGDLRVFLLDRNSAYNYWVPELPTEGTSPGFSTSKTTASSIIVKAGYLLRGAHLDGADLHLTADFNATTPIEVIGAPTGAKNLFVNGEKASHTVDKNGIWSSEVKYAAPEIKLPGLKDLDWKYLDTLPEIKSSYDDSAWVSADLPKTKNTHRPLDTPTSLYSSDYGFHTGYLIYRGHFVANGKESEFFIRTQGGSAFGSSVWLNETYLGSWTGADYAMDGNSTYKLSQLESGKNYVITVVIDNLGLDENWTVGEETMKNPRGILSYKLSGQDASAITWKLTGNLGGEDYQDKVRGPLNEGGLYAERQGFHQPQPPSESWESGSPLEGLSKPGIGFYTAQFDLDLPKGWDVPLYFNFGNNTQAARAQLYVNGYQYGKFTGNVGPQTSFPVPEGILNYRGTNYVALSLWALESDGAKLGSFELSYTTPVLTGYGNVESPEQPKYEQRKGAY
# procedure.summary: Enzyme kinetics with 2-nitrophenyl β-D-galactopyranoside, absorbance at […] nm, Lineweaver–Burk analysis, pH […] °C
# Assay type: biochemical
property: pKi
Reminder that pKi is minus the log10 of a molar concentration.

Form: Entry = OC[C@H]1O[C@@H](N2[C@@H]3[C@H]4CC[C@H](C4)[C@@H]32)[C@H](O)[C@@H](O)[C@H]1O (stereo partly shown) [compound 6] | System = β-galactosidase (A. oryzae) (Aspergillus oryzae) | pKi = ____
5.44

Reference source for all entries: paper PMC12666248
